Listing of entries alongside the reported pKd.
- test target: T1, Human complement Factor D, mature (human, UniProt P00746 27-253)
- T1 construct: In the TR-FRET assay the factor D was bought from Complement Technology; In the hemolysis assay it was the factor D of C1q-depleted human serum; also called human Factor D; hFD
- T1 sequence (P00746 27-253): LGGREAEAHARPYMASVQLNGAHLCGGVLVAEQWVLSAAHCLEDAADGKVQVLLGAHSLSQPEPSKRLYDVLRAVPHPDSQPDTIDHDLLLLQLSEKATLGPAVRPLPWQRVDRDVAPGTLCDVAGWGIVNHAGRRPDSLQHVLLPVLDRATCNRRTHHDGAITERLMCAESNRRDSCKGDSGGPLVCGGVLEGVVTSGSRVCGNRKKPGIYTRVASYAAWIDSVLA
- protocol text: SPR (Biacore T200): Fab captured with anti-huFab kit, human Factor D injected, 25 C, 1:1 model;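 further: sensorgrams were corrected by subtracting a blank injection of running buffer before fitting kinetic and affinity constants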
Just so you know, pKd here is -log10 of the concentration in molar units; reply with that number alone.

{"binder": "hu20D12.v2.8 Fab (Fab, V domains shown) VH: EVQLVQSGAEVKKPGASVKVSCKASGYTFTSYYMYWVRQAPGQGLEWIGEINPTSGGTNFNEKFKSRATLTVDTSTSTAYLELSSLRSEDTAVYYCAREGGFAYWGQGTLVTVSS VL: DIQMTQSPSSLSASVGDRVTITCKASQNVDTDVAWFQQKPGKAPKGLIQSASSRYSGVPSRFSGSGSGTDFTLTISSLQPEDFATYYCQQYNNYPLTFGQGTKVEIKR", "pKd": 10.21}

Give the reported value of pKd for this record: hu20D12.v2.11 Fab (Fab, V domains shown) VH: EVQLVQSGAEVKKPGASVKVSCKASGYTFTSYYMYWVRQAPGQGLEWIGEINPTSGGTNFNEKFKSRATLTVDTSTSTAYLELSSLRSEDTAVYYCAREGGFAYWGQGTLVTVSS VL: DIQMTQSPSSLSASVGDRVTITCKASQNVDTDVAWFQQKPGKAPKGLIYSASSRRSGVPSRFSGSGSGTDFTLTISSLQPEDFATYYCQQYNNYPLTFGQGTKVEIKR 8.00
